# credit: patent US6096744A

Molecular target: kainate site (non-NMDA receptor)
Assay: kainate site (non-NMDA receptor) binding affinity (London and Coyle)
readout: IC50 KA (µM)
I only need the number, in µM, no unit after it.

(Q) Need IC50 KA of Cc1c([N+](=O)[O-])cc2[nH]c(=O)c(=O)[nH]c2c1CN(C)S(=O)(=O)c1ccc2ccccc2c1 [Compound 4] , thanks.
(A) 26.0

(Q) Further, for Cc1c([N+](=O)[O-])cc2[nH]c(=O)c(=O)[nH]c2c1CN(C)S(C)(=O)=O [Compound 1] ?
(A) 0.29

(Q) Now the same for Cc1c([N+](=O)[O-])cc2[nH]c(=O)c(=O)[nH]c2c1CN(C)S(=O)(=O)c1c(C(C)C)cc(C(C)C)cc1C(C)C [Compound 3]
(A) 4.77

(Q) Note, next up: Cc1ccc(S(=O)(=O)N(C)Cc2c(C)c([N+](=O)[O-])cc3[nH]c(=O)c(=O)[nH]c23)cc1 [Compound 2]
(A) 2.63

----------
Molecular target: AMPA receptors
Test: AMPA receptor binding affinity (Honore et al.)
readout: IC50 (nM)
Give the number; nM is assumed, so skip it.

(Q) Which IC50 reading was recorded for the compound `Cc1c([N+](=O)[O-])cc2[nH]c(=O)c(=O)[nH]c2c1CN(C)S(=O)(=O)c1c(C(C)C)cc(C(C)C)cc1C(C)C` ?
(A) 2600

(Q) Moving on to `Cc1c([N+](=O)[O-])cc2[nH]c(=O)c(=O)[nH]c2c1CN(C)S(=O)(=O)c1ccc2ccccc2c1`
(A) 18000

(Q) Next entry: `Cc1c([N+](=O)[O-])cc2[nH]c(=O)c(=O)[nH]c2c1CN(C)S(C)(=O)=O`
(A) 210

(Q) `Cc1ccc(S(=O)(=O)N(C)Cc2c(C)c([N+](=O)[O-])cc3[nH]c(=O)c(=O)[nH]c23)cc1` , same question.
(A) 560
